These measurements were taken from ChEMBL document CHEMBL2177094.

Test system: Muscle tissue
Test: Biodistribution in overnight fasted Sprague-Dawley rat muscle organic fraction at 0.7 to 1.4 MBq, iv preincubated with POCA for 2 hrs before compound administration measured at 30 mins post treatment by Folch-type extraction method
Format: ADME, organism-based
Settings: in vivo, 0.5 h
Give Drug uptake for every item shown.
Provide only the numeric value, understood in %.

What value of Drug uptake on Muscle tissue does "O=C(O)CCSCCCCCCCCCCCC[18F]" have?
42.23

Follow-up item: "O=C(O)CCSCCCCCCCCCCCCCC[18F]"
47.15

Queued: "O=C(O)CCSCCCC/C=C\CCCCCCCC[18F]"
43.19

And then "O=C(O)CCCCSCCCCCCCCCCCC[18F]" , what is it?
43.43
